Numbers sourced from the supplement of paper PMC6555819.

# System: PPARg:RXRa 30nM:10nM, anti-RXR (NR concentration 30 nM, RXRa partner concentration 10 nM)
# experimentNotes: PBM binding z-score (relative to random genomic background probes); higher = stronger binding; sequences stand for … in GC…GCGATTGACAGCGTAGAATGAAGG
assayReadout: PBM binding z-score
In your answer, state the number alone without any accompanying words.

Check out these entries, answers already filled in.
[
  {
    "orderedResidues": "GCTGCTAGGACAACTGATGGTCAGCTAAAGCTCG",
    "PBM binding z-score": -0.952
  },
  {
    "orderedResidues": "ACTAGCAGGGCAAGGGTCACTCAAGATTAGTCCG",
    "PBM binding z-score": 7.19
  },
  {
    "orderedResidues": "AGAACCAGGGCAATGAGTTGATAGCACGGGTGGC",
    "PBM binding z-score": -0.539
  },
  {
    "orderedResidues": "GTACCAAGGTGAATAGGTCGTTGTTGAGTAGGCG",
    "PBM binding z-score": 0.0125
  },
  {
    "orderedResidues": "AATACAGGGTCACTAGGCCAGAGGAGGTACGAAT",
    "PBM binding z-score": 3.82
  },
  {
    "orderedResidues": "ATCGATAGGTCGAGGTGAGTATAGAGAAAGGGAA",
    "PBM binding z-score": 0.245
  },
  {
    "orderedResidues": "GGAACGATGGCAAGTTGATAGCAGAGTTTGATGG",
    "PBM binding z-score": -0.448
  },
  {
    "orderedResidues": "TATACAGGGTTAAAGGCCAGAGTACGAATGTCGA",
    "PBM binding z-score": 3.04
  },
  {
    "orderedResidues": "TCGAGTAGGTTAGTCGGGGCATTCAGCCAACATA",
    "PBM binding z-score": 0.435
  },
  {
    "orderedResidues": "ACAGACAGGTGAGTGAAGGGAACTCAGCTGGACG",
    "PBM binding z-score": -0.652
  }
]

Form: sequence = `TCTATTCGTTGAAGGGCAACCGACGAGTCCGTTT` ; PBM binding z-score = 3.64

Quick note, PBM binding z-score for `ATATGTAGGTTAGCTGGGGTCATTCGGACTAGGC` landed at 3

###

# Test system: LXRb:RXRa (NR concentration 270 nM, RXRa partner concentration 90 nM)
# experimentNotes: PBM binding z-score (relative to random genomic background probes); higher = stronger binding; sequences stand for … in GC…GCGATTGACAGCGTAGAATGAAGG
assayReadout: PBM binding z-score
# respond with the number and nothing more

Past entries and their recorded results:
[
  {
    "orderedResidues": "ATCGAACGGTCGTGAGGTGAGTATACAGAAAGGC",
    "resultNumber": -0.299
  },
  {
    "orderedResidues": "CCTAGTGGGCCACGAAAGGTCATTGATTCAGTGA",
    "resultNumber": 4.3
  },
  {
    "orderedResidues": "AGTCCAAGTTCAGGACGAGGTAACGTAAAGCACG",
    "resultNumber": 0.596
  },
  {
    "orderedResidues": "CGTCAAAGTTCAAGGTAACATAACAGAAAGCAGC",
    "resultNumber": 3.37
  },
  {
    "orderedResidues": "CGTCCAAGGTCAAAGGCCAGTGAAGAGATGACGG",
    "resultNumber": 3.87
  },
  {
    "orderedResidues": "CAAACTAGCTCACCGGAAGGTCAAAGTCCGCATG",
    "resultNumber": 3.43
  }
]

Sample `TAGCCTAGGTCAGATCTGGCCAGTATACGCTATA` , system: LXRb:RXRa (NR concentration 270 nM, RXRa partner concentration 90 nM). Its PBM binding z-score is 0.773

Reported LXRb:RXRa (NR concentration 270 nM, RXRa partner concentration 90 nM) PBM binding z-score for item `TCTCGGAGGACACGAAATGTCAGAGCTCGACATC` was 0.313

Response field PBM binding z-score (LXRb:RXRa (NR concentration 270 nM, RXRa partner concentration 90 nM)) for item `TCGAGTAGGTTAGGTGCATTCAGAATGGCGTCGA` : 0.172

Entry `CCTAGTAGTTGACCATAAGGGCAACCGAAGCTCG` under LXRb:RXRa (NR concentration 270 nM, RXRa partner concentration 90 nM) had PBM binding z-score of 0.228

Tested on LXRb:RXRa (NR concentration 270 nM, RXRa partner concentration 90 nM), the item `CCTACTGGGCCATCAGGTCGTTGATATCAACGTT` showed PBM binding z-score equal to -0.0218

Item `CCGAGTAGGTTATGGGGTATTCAGGCAACGGTGA` was tested on LXRb:RXRa (NR concentration 270 nM, RXRa partner concentration 90 nM); the reported PBM binding z-score is 1.09

LXRb:RXRa (NR concentration 270 nM, RXRa partner concentration 90 nM) PBM binding z-score of `TCTAGCAGGCCAGAGGGTCACTCCAGAGGTACGG` is 0.582

Field PBM binding z-score (system: LXRb:RXRa (NR concentration 270 nM, RXRa partner concentration 90 nM)) for entry `TAGCCTAGGTCATTCAGGGTCCAGTATAGAAAGC` = 3.01

Per the reported LXRb:RXRa (NR concentration 270 nM, RXRa partner concentration 90 nM) data, `TCTGCTAGGTCAGTTGGTCAGATAACGAGCTGCC` has PBM binding z-score of 0.683

Item: `TCTTGTAGATCAATAAAGGTTAAGAAAGTGCGCT` | System: LXRb:RXRa (NR concentration 270 nM, RXRa partner concentration 90 nM) | PBM binding z-score: 2.36
